system-under-test: NLRP3 inflammasome (Homo sapiens, UniProt Q96P20)
Construct: host or cells: THP1-Null cells (PMA-differentiated, LPS-primed, nigericin-stimulated)
Sequence (Q96P20 whole entry): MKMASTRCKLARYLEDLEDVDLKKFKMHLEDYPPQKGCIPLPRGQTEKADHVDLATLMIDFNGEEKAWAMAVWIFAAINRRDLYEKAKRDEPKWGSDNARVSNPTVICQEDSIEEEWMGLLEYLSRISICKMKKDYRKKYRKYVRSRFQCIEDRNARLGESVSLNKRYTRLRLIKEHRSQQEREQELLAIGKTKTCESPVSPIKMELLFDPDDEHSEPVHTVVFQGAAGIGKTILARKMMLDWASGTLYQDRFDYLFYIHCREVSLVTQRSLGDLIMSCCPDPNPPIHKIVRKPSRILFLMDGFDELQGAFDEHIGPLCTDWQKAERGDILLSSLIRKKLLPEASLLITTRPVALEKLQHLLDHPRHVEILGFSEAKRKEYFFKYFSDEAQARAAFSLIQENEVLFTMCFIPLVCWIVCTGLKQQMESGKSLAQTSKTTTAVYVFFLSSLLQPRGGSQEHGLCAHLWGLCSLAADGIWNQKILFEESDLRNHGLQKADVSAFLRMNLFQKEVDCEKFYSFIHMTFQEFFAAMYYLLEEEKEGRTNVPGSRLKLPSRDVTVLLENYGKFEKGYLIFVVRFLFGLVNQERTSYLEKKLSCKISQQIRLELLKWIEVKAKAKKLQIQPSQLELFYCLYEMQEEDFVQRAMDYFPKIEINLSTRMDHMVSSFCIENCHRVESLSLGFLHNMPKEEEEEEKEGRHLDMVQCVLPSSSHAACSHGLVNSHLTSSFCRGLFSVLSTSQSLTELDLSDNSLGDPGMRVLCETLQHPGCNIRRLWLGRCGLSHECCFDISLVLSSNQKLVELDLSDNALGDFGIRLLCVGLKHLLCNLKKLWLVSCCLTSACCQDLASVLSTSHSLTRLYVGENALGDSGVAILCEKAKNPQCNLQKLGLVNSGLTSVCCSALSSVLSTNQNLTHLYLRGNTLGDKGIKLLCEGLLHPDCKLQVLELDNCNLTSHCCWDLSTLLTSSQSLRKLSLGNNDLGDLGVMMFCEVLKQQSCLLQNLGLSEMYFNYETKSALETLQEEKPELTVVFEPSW
assay-details: Evaluation of NLRP3 inflammasome inhibitory activity (inhibition of IL-1β production in LPS/Nigericin-stimulated THP1-Null cells, AlphaLISA)
Format: cell-based
condition-details: IL-1β production in THP1-Null cells; PMA, 1 µg/mL Lipopolysaccharides 3 hours, Nigericin 7.5 µmol/L 1.5 hours; read-out: IC50
The molecules listed here are annotated with their pIC50.
Please treat pIC50 as minus the base-10 logarithm of the molar concentration.

Example results:
Cc1cc(OC(F)F)cc(C)c1-n1cc2c(=O)[nH]c(CC3CC3)nc2n1    7.17
Cc1cc(C2CC2)cc(C)c1-n1cc2c(=O)[nH]c(C3(F)CCC3)nc2n1    7.17

Ask: Query: pIC50; subject: Cc1cc(OC(F)F)cc(C)c1-n1cc2c(=O)[nH]c(C3(O)CCOCC3F)nc2n1 (single isomer, unassigned)
Result: 7.52

Ask: Same lookup for Cc1cc(C2CC2)cc(C)c1-n1cc2c(=O)[nH]c(C3CCO3)nc2n1 (racemic) , please.
Result: 6.82

Ask: Same lookup for Cc1ccc(-n2cc3c(=O)[nH]c(C)nc3n2)c(C)c1 , please.
Result: 6.27

Ask: Same lookup for Cc1cc(C2CC2)cc(C)c1-n1cc2c(=O)[nH]c(C34CCOCC3C4(F)F)nc2n1 (racemic) , please.
Result: 6.37

Data provenance is patent EP4671247A1.
